compounds and their reported In vivo Expression (Whole Body)
system: BALB/C mice; experiment: In vivo expression, whole-body luminescence (IVIS); settings: cirRNA (SEQ ID NO: 1) LNPs, BALB/C mice
experimental_readout: In vivo Expression (Whole Body)

[[record]]
compound = "CCCCCCCCC(CCCCCCCC)OC(=O)CCCCCCCN(CCCCCCCCOC(=O)C(CCCCCC)CCCCCCCC)CCOC(=O)NCCN1CCCC1 (stereo not shown)"
measured_value = "5.07E+08"

[[record]]
compound = "CCCCCCCCCCC(CCCCCCCC)COC(=O)CCCCCN(CCCCCCCCOC(=O)C(CCCCCC)CCCCCCCC)CCOC(=O)NCCN(C)C (stereo not shown)"
measured_value = "6.85E+08"

[[record]]
compound = "CCCCCCCOC(=O)CCCCCCCCCN(CCCCCCCCCC(=O)OCCCCCCC)CCOC(=O)NCCN1CCCC1"
measured_value = "9.30E+05"

[[record]]
compound = "CCCCCCCCCCCOC(=O)CCCCCN(CCCCCCCCOC(=O)C(CCCCCC)CCCCCCCC)CCOC(=O)NCCN1CCOCC1 (stereo not shown)"
measured_value = "5.53E+06"

[[record]]
compound = "CCCCCCCCCC(=O)OCCCCCCCN(CCCCCCCCOC(=O)C(CCCCCC)CCCCCCCC)CCCOC(=O)NCCN(C)C (stereo not shown)"
measured_value = "1.85E+06"

[[record]]
compound = "CCCCC/C=C\\C/C=C\\CCCCCCCCN(CCCCCCCC(=O)OC(CCCCCCCC)CCCCCCCC)CCCOC(=O)NCCCN(C)C"
measured_value = "3.66E+06"

[[record]]
compound = "CCCCC/C=C\\C/C=C\\CCCCCCCCN(CCCCCCCC/C=C\\CCCCCCCC)CCOC(=O)NCCN1CCN(C)CC1"
measured_value = "2.08E+05"

